biological target: human GCG receptor (human, UniProt P47871 26-477); assay: cell-based or functional assay
Sequence (P47871 26-477): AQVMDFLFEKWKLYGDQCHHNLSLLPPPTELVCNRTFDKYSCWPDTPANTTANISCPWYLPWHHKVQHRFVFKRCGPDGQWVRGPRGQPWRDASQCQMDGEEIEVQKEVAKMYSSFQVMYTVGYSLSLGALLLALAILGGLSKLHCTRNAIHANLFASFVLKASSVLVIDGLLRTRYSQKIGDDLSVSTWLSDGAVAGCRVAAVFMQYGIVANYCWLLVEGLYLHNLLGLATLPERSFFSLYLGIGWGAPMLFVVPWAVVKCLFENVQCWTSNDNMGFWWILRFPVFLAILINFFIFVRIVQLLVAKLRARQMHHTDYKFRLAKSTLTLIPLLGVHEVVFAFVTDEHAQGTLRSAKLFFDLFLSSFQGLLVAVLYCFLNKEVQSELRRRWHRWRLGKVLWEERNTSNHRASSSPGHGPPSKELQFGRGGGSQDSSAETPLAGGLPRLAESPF
Bridges are numbered along the chain shown (N, C = ends). Where no end group is shown, it is not given here. [ ]: non-standard residue; d: D form. The star is where a group is joined. Acetyl(2-(4-imidazolyl)) = O=C(Cc1c[nH]cn1)*; Aib = CC(C)(N)C(=O)O
Give t when the value for in vitro Activity Compared to Native Peptide (%), vs Glucagon is at least 10%. Give f when it is less.

Answered cases to consult:
| Binder | Category Label |
| --- | --- |
| Y[Aib]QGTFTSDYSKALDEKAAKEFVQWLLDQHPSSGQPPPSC (bridge 16-20; not fully specified (C-terminus); also: ring type not given here) [triple agonist of SEQ ID NO: 100] | t |
| [Acetyl(2-(4-imidazolyl))][Aib]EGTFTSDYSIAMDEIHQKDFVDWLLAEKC (bridge 16-20; not fully specified (C-terminus)) [triple agonist of SEQ ID NO: 91] | t |
| H[Aib]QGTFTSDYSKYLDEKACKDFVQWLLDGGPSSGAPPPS (bridge 16-20; not fully specified (C-terminus)) [triple agonist of SEQ ID NO: 32] | f |
| H[Aib]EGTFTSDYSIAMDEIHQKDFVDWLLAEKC (bridge 16-20; not fully specified (C-terminus)) [triple agonist of SEQ ID NO: 80] | f |
| H[Aib]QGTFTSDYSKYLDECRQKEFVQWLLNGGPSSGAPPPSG (bridge 16-20; not fully specified (C-terminus)) [triple agonist of SEQ ID NO: 37] | f |
| [Acetyl(2-(4-imidazolyl))]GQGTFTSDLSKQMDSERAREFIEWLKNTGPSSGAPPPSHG-NH2 [triple agonist of SEQ ID NO: 18] | f |
| H[Aib]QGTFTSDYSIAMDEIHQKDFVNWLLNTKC (bridge 16-20; not fully specified (C-terminus)) [triple agonist of SEQ ID NO: 35] | f |
| H[Aib]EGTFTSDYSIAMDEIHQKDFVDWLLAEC (bridge 16-20; not fully specified (C-terminus)) [triple agonist of SEQ ID NO: 54] | f |
| Y[Aib]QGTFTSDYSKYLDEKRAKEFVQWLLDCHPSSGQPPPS (bridge 16-20; not fully specified (C-terminus)) [triple agonist of SEQ ID NO: 97] | t |
| Y[Aib]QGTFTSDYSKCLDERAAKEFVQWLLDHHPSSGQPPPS (bridge 16-20; not fully specified (C-terminus)) [triple agonist of SEQ ID NO: 69] | f |

(Q) Determine whether measured in vitro Activity Compared to Native Peptide (%), vs Glucagon meets or exceeds 10% for [Acetyl(2-(4-imidazolyl))]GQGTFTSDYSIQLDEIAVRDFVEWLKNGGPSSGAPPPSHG-NH2 [triple agonist of SEQ ID NO: 14]
(A) f

(Q) Determine whether measured in vitro Activity Compared to Native Peptide (%), vs Glucagon meets or exceeds 10% for Y[Aib]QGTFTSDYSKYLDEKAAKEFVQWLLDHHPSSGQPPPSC (bridge 16-20; not fully specified (C-terminus)) [triple agonist of SEQ ID NO: 75]
(A) f

(Q) Determine whether measured in vitro Activity Compared to Native Peptide (%), vs Glucagon meets or exceeds 10% for Y[Aib]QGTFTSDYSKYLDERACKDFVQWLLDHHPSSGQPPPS (bridge 16-20; not fully specified (C-terminus)) [triple agonist of SEQ ID NO: 71]
(A) t

(Q) Determine whether measured in vitro Activity Compared to Native Peptide (%), vs Glucagon meets or exceeds 10% for [Acetyl(2-(4-imidazolyl))][Aib]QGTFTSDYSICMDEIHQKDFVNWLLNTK (bridge 16-20; not fully specified (C-terminus)) [triple agonist of SEQ ID NO: 49]
(A) f

(Q) Determine whether measured in vitro Activity Compared to Native Peptide (%), vs Glucagon meets or exceeds 10% for H[Aib]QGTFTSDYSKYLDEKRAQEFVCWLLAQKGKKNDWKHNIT-NH2 [triple agonist of SEQ ID NO: 28]
(A) f

(Q) Determine whether measured in vitro Activity Compared to Native Peptide (%), vs Glucagon meets or exceeds 10% for Y[Aib]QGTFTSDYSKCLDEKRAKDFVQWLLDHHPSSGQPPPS (bridge 16-20; not fully specified (C-terminus)) [triple agonist of SEQ ID NO: 70]
(A) t

(Q) Determine whether measured in vitro Activity Compared to Native Peptide (%), vs Glucagon meets or exceeds 10% for [Acetyl(2-(4-imidazolyl))]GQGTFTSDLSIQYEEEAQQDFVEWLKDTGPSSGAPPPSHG-NH2 [triple agonist of SEQ ID NO: 20]
(A) f

(Q) Determine whether measured in vitro Activity Compared to Native Peptide (%), vs Glucagon meets or exceeds 10% for [Acetyl(2-(4-imidazolyl))][Aib]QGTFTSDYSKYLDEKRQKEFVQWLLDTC (bridge 16-20; not fully specified (C-terminus)) [triple agonist of SEQ ID NO: 82]
(A) f
